Species: Rattus norvegicus
Assay: Ability to relax phenylephrine-contracted rat aorta rings
Format: functional
pEC50: −log10 of the molar value.

Compound | Operator | pEC50
CC(C)[C@@H](C)NC1=NS(=O)(=O)c2sc(Cl)cc2N1 | = | 4.12
CC1(NC2=NS(=O)(=O)c3sc(Cl)cc3N2)CC1 [TIFENAZOXIDE] | = | 3.92
CCNC1=NS(=O)(=O)c2sc(Cl)cc2N1 | = | 3.87
CCCCCCNC1=NS(=O)(=O)c2sc(Cl)cc2N1 | = | 6.82
CCCCCCCCNC1=NS(=O)(=O)c2sc(Cl)cc2N1 | = | 3.75
CCCCNC1=NS(=O)(=O)c2sc(Cl)cc2N1 | = | 4.87
CC(NC1=NS(=O)(=O)c2sc(Cl)cc2N1)C(C)(C)C (racemic) | = | 5.70
NC1=NS(=O)(=O)c2sc(Cl)cc2N1 | = | 3.58
CC(C)CCCC(C)NC1=NS(=O)(=O)c2sc(Cl)cc2N1 (racemic) | = | 4.60
CC(C)[C@H](C)NC1=NS(=O)(=O)c2sc(Cl)cc2N1 | < | 3.52
CC1(NC2=NS(=O)(=O)c3sc(Cl)cc3N2)CCCC1 | = | 5.21
CCC1(NC2=NS(=O)(=O)c3sc(Cl)cc3N2)CCC1 | = | 5.48
CCC(CC)CNC1=NS(=O)(=O)c2sc(Cl)cc2N1 | = | 5.10
CC1(NC2=NS(=O)(=O)c3sc(Cl)cc3N2)CCC1 | = | 5.19
CC(C)C(C)NC1=NS(=O)(=O)c2sc(Cl)cc2N1 (racemic) | = | 4.46
CCCCCC(C)NC1=NS(=O)(=O)c2sc(Cl)cc2N1 (racemic) | = | 5.70
CC[C@@H](C)NC1=NS(=O)(=O)c2sc(Cl)cc2N1 | = | 4.15
CNC1=NS(=O)(=O)c2sc(Cl)cc2N1 | = | 4.76
CC1(NC2=NS(=O)(=O)c3sc(Cl)cc3N2)CCCCC1 | = | 5.85
CC(C)(C)NC1=NS(=O)(=O)c2sc(Cl)cc2N1 | = | 3.77
CC[C@H](C)NC1=NS(=O)(=O)c2sc(Cl)cc2N1 | = | 4.29
CC(C)NC1=NS(=O)(=O)c2sc(Cl)cc2N1 | = | 3.58
CCC(C)CNC1=NS(=O)(=O)c2sc(Cl)cc2N1 (racemic) | = | 4.69
CCC(C)NC1=NS(=O)(=O)c2sc(Cl)cc2N1 (stereo unspecified) | = | 4.19
O=S1(=O)NC(NC2CCC2)=Nc2cc(Cl)sc21 | = | 4.57
O=S1(=O)NC(NC2CC2)=Nc2cc(Cl)sc21 | = | 4.55
CCCNC1=NS(=O)(=O)c2sc(Cl)cc2N1 | = | 4.19
O=S1(=O)NC(NC2CCCC2)=Nc2cc(Cl)sc21 | < | 3.52
CCC(C)(C)NC1=NS(=O)(=O)c2sc(Cl)cc2N1 | = | 4.93
O=S1(=O)NC(NC2CCCCC2)=Nc2cc(Cl)sc21 | = | 5.17
CCCC(C)NC1=NS(=O)(=O)c2sc(Cl)cc2N1 (racemic) | = | 4.08
